- System Tested: Estrogen receptor (Homo sapiens)
- Assay Notes: Induction of ERalpha degradation in human MCF7 cells in phenol red free RPMI medium containing 5% charcoal-stripped FBS at 2 to 10 uM incubated for 4 hrs by IRDye 800CW/DRAQ5 dye based in-cell Western assay relative to fulvestrant
Outcome Measure: Efficacy (%)

1) CC/C(=C(/c1ccc(/C=C/C(=O)O)cc1)c1ccc2c(cnn2C)c1)c1ccccc1 :: 84
2) CC/C(=C(/c1ccc(/C=C/C(=O)O)cc1)c1ccc(N2CCCCC2)cc1)c1ccccc1 :: 90
3) CC/C(=C(/c1ccc(/C=C/C(=O)O)cc1)c1ccc2cncn2c1)c1ccccc1 :: 86
4) CC/C(=C(/c1ccc(/C=C/C(=O)O)cc1)c1ccc(-n2ccnc2)cc1)c1ccccc1 :: 89
5) CC/C(=C(\c1ccccc1)c1ccc(/C=C/C(=O)O)cc1)c1ccccc1 :: 85
6) CC/C(=C(/c1ccc(/C=C/C(=O)O)cc1)c1ccc(-c2cc[nH]n2)cc1)c1ccccc1 :: 86
7) CC/C(=C(/c1ccc(/C=C/C(=O)O)cc1)c1ccc2sncc2c1)c1ccccc1 :: 90
8) CC/C(=C(/c1ccc(/C=C/C(=O)O)cc1)c1ccc(-c2nccs2)cc1)c1ccccc1 :: 91
9) CC/C(=C(/c1ccc(/C=C/C(=O)O)cc1)c1ccc2ccccc2c1)c1ccccc1 :: 91
10) CC/C(=C(/c1ccc(/C=C/C(=O)O)cc1)c1ccc2nccn2c1)c1ccccc1 :: 86
11) CC/C(=C(/c1ccc(/C=C/C(=O)O)cc1)c1ccn2nncc2c1)c1ccccc1 :: 86
12) CC/C(=C(/c1ccc(/C=C/C(=O)O)cc1)c1ccc2sc(C)nc2c1)c1ccccc1 :: 88
13) CC/C(=C(/c1ccc(/C=C/C(=O)O)cc1)c1ccc2ncsc2c1)c1ccccc1 :: 86
14) CC/C(=C(/c1ccc(/C=C/C(=O)O)cc1)c1ccc2ocnc2c1)c1ccccc1 :: 86
15) CC/C(=C(/c1ccc(/C=C/C(=O)O)cc1)c1ccc(N2CCN(C)CC2)cc1)c1ccccc1 :: 85
16) CC/C(=C(/c1ccc(/C=C/C(=O)O)cc1)c1ccn2nccc2c1)c1ccccc1 :: 90
